Biological target: ALDH1a3 (Homo sapiens, UniProt P47895)
Sequence (P47895 1-512): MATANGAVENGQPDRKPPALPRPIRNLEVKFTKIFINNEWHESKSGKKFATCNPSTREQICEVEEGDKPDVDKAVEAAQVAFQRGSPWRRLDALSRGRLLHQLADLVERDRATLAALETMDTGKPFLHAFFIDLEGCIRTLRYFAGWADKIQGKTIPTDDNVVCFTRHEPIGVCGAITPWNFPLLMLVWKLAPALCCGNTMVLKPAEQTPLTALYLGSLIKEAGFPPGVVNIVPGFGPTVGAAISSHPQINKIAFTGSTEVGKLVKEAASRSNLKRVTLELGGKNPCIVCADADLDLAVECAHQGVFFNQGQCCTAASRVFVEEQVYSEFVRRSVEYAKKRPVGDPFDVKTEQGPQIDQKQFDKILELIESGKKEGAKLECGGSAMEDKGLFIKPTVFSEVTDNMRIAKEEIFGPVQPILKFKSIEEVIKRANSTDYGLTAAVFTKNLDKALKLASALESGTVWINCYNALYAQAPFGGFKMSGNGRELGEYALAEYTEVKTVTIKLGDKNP
Assay: Aldh1a3 enzyme inhibition assay, recombinant hALDH1a3
Conditions: resorufin fluorescence, 20° C.
Entries annotated with measured IC50

Example entries and their recorded answers appear below.
> print(dat)
                                   compound           result
1  CCc1cc(C#N)ccc1C(=O)Nc1cc2c(cc1F)NC(=O)C(C)(C)C2  1000 to 5000 nM
2    Cc1cccc2ncc(Nc3ccc4c(c3)CCC(=O)N4)cc12  1000 to 5000 nM
3  Cc1cc(C(=O)Nc2cc3c(cc2F)NC(=O)C(C)(C)C3)c(CC(C)C)cn1  1000 to 5000 nM
4  CC1(C)Cc2cc(NC3COc4ccccc4C3)ccc2NC1=O (centres unmarked)        > 5000 nM
5  CCc1cnccc1C(=O)Nc1cc2c(cc1F)NC(=O)C(C)(C)C2   250 to 1000 nM
6      CCc1cnccc1/C=C/c1cc2c(cc1F)NC(=O)CC2   250 to 1000 nM
7    Cc1cc(C(=O)Nc2cc3c(cc2F)NC(=O)CC3)ccn1        > 5000 nM
8  CCc1cnc(C)cc1C(=O)Nc1cc2c(cc1F)NC(=O)CC2 [Compound 8]         < 100 nM

Query: Form field: reported IC50 of "CCCc1cnccc1C(=O)Nc1cc2c(cc1F)NC(=O)CC2"
Result: < 100 nM

Query: Form field: reported IC50 of "CC1(C)Cc2cc(Nc3cnc4ccc(C(=O)O)cc4n3)ccc2NC1=O"
Result: > 5000 nM

Query: Form field: reported IC50 of "Cn1ccc2nc(Nc3ccc4c(c3)CC(C)(C)C(=O)N4)ccc21"
Result: > 5000 nM

====

Test: Pharmacokinetic profiling in mice
Conditions: male, CD-1/C57BL/6, mouse, plasma, oral, 10 mg/kg
measurement.label: bioavailability
Please answer using a numeric value trailed by its unit.

Query: Form field: reported bioavailability of CCc1cnccc1C(=O)Nc1cc2c(cc1F)NC(=O)CC2 [Compound 1]
Result: 88%

====

Target: ALDH1a3 (Homo sapiens)
Assay: Aldh1a3 enzyme inhibition assay, recombinant hALDH1a3
Settings: resorufin fluorescence, 20° C.
Source text: Recombinant enzyme and inhibitor added immediately before assay. Reaction rate measured by resorufin fluorescence.
Entries annotated with measured IC50

> print(dat)
                                compound     result
1  CCc1cnccc1C(=O)Nc1ccc2c(c1F)CCC(=O)N2  > 5000 nM
2  COCc1cnccc1C(=O)Nc1ccc2c(c1)CCC(=O)N2  > 5000 nM
3    Cc1cnccc1C(=O)Nc1ccc2c(c1)CCC(=O)N2  > 5000 nM

Query: Provide the documented IC50 with ALDH1a3 (Homo sapiens) as the system for "CC1(C)Cc2cc(Nc3ccc4cnccc4c3)ccc2NC1=O"
Result: > 5000 nM

Query: Provide the documented IC50 with ALDH1a3 (Homo sapiens) as the system for "CCc1cnccc1/C=C/c1ccc2c(c1)CC(C)(C)C(=O)N2"
Result: 250 to 1000 nM

Query: Provide the documented IC50 with ALDH1a3 (Homo sapiens) as the system for "CCc1cnccc1C(=O)N(C)c1ccc2c(c1)CCC(=O)N2"
Result: > 5000 nM
